Procedure text: Cytotoxicity against rat H9c2 cells assessed as cell viability at 3.125 to 200 ug/ml after 48 hrs by MTT assay
Type: cell-based
Condition summary: read-out: Activity
Observation type: viability at 48 h

- Query smiles: "C/C(=N\\NC(=S)NCc1ccccc1)c1c(O)ccc2ccc(=O)oc12"
  Measured result: "> 80%"
- Query smiles: "C/C(=N\\NC(=S)N1CCC(Cc2ccccc2)CC1)c1c(O)ccc2ccc(=O)oc12"
  Measured result: "> 80%"
- Query smiles: "C/C(=N\\NC(=S)NC12CC3CC(CC(C3)C1)C2)c1c(O)ccc2ccc(=O)oc12"
  Measured result: "> 80%"
